# ASSAY EXPLANATION: HT EQ solubility assay
# Type: physicochemical
# CONDITION: thermodynamic from solid; Fessif, stirred 24 h; read-out: HtEq Sol
MEASURED METRIC: solubility thermodynamic at 24 h (µM)
The figure you give is taken to be in µM; do not add the unit.

stdin: Output solubility thermodynamic at 24 h of Cc1c(C(=O)C(=O)NC2(c3cn[nH]n3)CC(F)(F)C2)cn(C)c1C(=O)Nc1ccc(F)c(Cl)c1
stdout: 150

stdin: Tell me measured solubility thermodynamic at 24 h for Cc1c(C(=O)C(=O)NC2(c3c[nH]nn3)CC(F)(F)C2)c(C)n(C)c1C(=O)Nc1ccc(F)c(C#N)c1 please.
stdout: 277

----------
# ASSAY EXPLANATION: Cytotoxicity, ATPlite cell viability
# Format: cell-based
# CONDITION: human, mean value, HepG2 or HepG2.117 cells
MEASURED METRIC: CC50 at 4 days (µM)
Quick reminder: number only, in µM, skip the unit.

stdin: Give reported CC50 at 4 days value for Cn1cc(C(=O)C(=O)NC2(c3cn[nH]n3)CC(F)(F)C2)cc1C(=O)Nc1ccc(F)c(C#N)c1
stdout: 8.2

stdin: Name the recorded CC50 at 4 days of the compound listed here: Cc1c(C(=O)C(=O)N[C@@]2(c3cn[nH]n3)CCC(F)(F)C2)cn(C)c1C(=O)Nc1ccc(F)c(Cl)c1 (single isomer, unassigned)
stdout: 24.2

stdin: For the compound Cc1nc(C2(NC(=O)C(=O)c3cc(C(=O)Nc4ccc(F)c(C#N)c4)n(C)c3)CC(F)(F)C2)n[nH]1 , give its reported CC50 at 4 days.
stdout: 29.5

stdin: Note down CC50 at 4 days recorded for Cn1cc(C(=O)C(=O)N[C@@H](CC(F)F)c2cn[nH]n2)cc1C(=O)Nc1ccc(F)c(C#N)c1 (single isomer, unassigned)
stdout: 28.2

stdin: For Cc1cc(NC(=O)c2cc(C(=O)C(=O)NC3(c4cn[nH]n4)CC(F)(F)C3)cn2C)ccc1F , write its CC50 at 4 days.
stdout: 23.8

stdin: Output measured CC50 at 4 days for this item: Cc1c(C(=O)C(=O)NC2(c3cn[nH]n3)CC(F)(F)C2)c(C2CC2)n(C)c1C(=O)Nc1ccc(F)c(Cl)c1
stdout: 26.3

stdin: Return the recorded CC50 at 4 days value; entry: Cn1cc(C(=O)C(=O)NC2(c3ncc[nH]3)CC(F)(F)C2)cc1C(=O)Nc1ccc(F)c(C#N)c1
stdout: 6.6

stdin: Indicate its recorded CC50 at 4 days; the compound in question is Cn1cc(C(=O)C(=O)NC(CC(F)F)c2cn[nH]n2)cc1C(=O)Nc1ccc(F)c(C#N)c1 (centres unmarked) [Compound 24RS]
stdout: 22.1

stdin: Return value of CC50 at 4 days for input Cn1cc(C(=O)C(=O)N[C@H](c2cnn[nH]2)C(C)(C)C)cc1C(=O)Nc1ccc(F)c(C#N)c1 (stereo in doubt) , no commentary.
stdout: 26

----------
Give measured CC50 at 4 days for each item. Keep answers brief.
# ASSAY EXPLANATION: Cytotoxicity, ATPlite cell viability
# Format: cell-based
# CONDITION: human, mean value, HepG2 or HepG2.117 cells

stdin: Name the recorded CC50 at 4 days of the compound listed here: Cc1c(C(=O)C(=O)N[C@@H](CC(F)(F)F)c2cn[nH]n2)cn(C)c1C(=O)Nc1ccc(F)c(C#N)c1 (single isomer, unassigned)
stdout: > 50 µM

stdin: State its CC50 at 4 days: Cc1c(C(=O)C(=O)N[C@H](CC(F)(F)F)c2cn[nH]n2)cn(C)c1C(=O)Nc1ccc(F)c(C#N)c1 (single isomer, unassigned)
stdout: > 50 µM

stdin: Entry Cn1cc(C2(NC(=O)C(=O)c3cn(C)c(C(=O)Nc4ccc(F)c(Cl)c4)c3Cl)CC(F)(F)C2)nn1 needs its CC50 at 4 days filled in; supply it.
stdout: > 50 µM
